Quick reference for self-cleavage kobs at 2500 uM GlcN6P among some variants
B1: glmS ribozyme (parent)
chain: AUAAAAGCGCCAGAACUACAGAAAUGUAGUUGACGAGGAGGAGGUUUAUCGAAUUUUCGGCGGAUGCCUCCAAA

# Variants of: B1
# assayDetails: self-cleavage kobs at 2500 uM GlcN6P; higher = faster cleavage; RNA array
# assayConditions: with glucosamine-6-phosphate
This sample holds only a part of the variants without activity.
assayReadout: self-cleavage kobs at 2500 uM GlcN6P (s⁻¹)

change | assayReadout | relationSymbol | measuredValue
A39G C58U | self-cleavage kobs at 2500 uM GlcN6P | = | 3.24e-05
A33U U54A | self-cleavage kobs at 2500 uM GlcN6P | = | 7.03e-05
A14U A48U U54G G60C U69A C71U | self-cleavage kobs at 2500 uM GlcN6P | = | 4.74e-05
G9U A33G A53C | self-cleavage kobs at 2500 uM GlcN6P | < | 1e-05
C58G C68U | self-cleavage kobs at 2500 uM GlcN6P | = | 4.14e-05
U31A A52G U69G | self-cleavage kobs at 2500 uM GlcN6P | = | 7.91e-05
C34U A39G | self-cleavage kobs at 2500 uM GlcN6P | < | 1e-05
C16U U65C | self-cleavage kobs at 2500 uM GlcN6P | = | 0.000332
G29A G40U | self-cleavage kobs at 2500 uM GlcN6P | = | 0.000207
A12G C34U C68A | self-cleavage kobs at 2500 uM GlcN6P | < | 1e-05
A14C A15G G40U | self-cleavage kobs at 2500 uM GlcN6P | = | 0.000171
C34U G38U C50G | self-cleavage kobs at 2500 uM GlcN6P | = | 0.000215
U45A A53U U65A | self-cleavage kobs at 2500 uM GlcN6P | = | 0.00652
A33U A42G C61A G66A | self-cleavage kobs at 2500 uM GlcN6P | < | 1e-05
A12G A14G U30A U46C U49C U57C | self-cleavage kobs at 2500 uM GlcN6P | < | 1e-05
A6C G37C | self-cleavage kobs at 2500 uM GlcN6P | < | 1e-05
G41A U47G C70G | self-cleavage kobs at 2500 uM GlcN6P | = | 9.9e-05
A12G G66U | self-cleavage kobs at 2500 uM GlcN6P | = | 3.43e-05
G7A G32A C50G | self-cleavage kobs at 2500 uM GlcN6P | = | 6.89e-05
A42U U57G | self-cleavage kobs at 2500 uM GlcN6P | < | 1e-05
C16G A36C G51A G59C C61G | self-cleavage kobs at 2500 uM GlcN6P | < | 1e-05
G32C U54G | self-cleavage kobs at 2500 uM GlcN6P | = | 5.12e-05
A6G A39U | self-cleavage kobs at 2500 uM GlcN6P | = | 0.000176
A15U C68U | self-cleavage kobs at 2500 uM GlcN6P | = | 0.000277
A14U G43U U46A | self-cleavage kobs at 2500 uM GlcN6P | < | 1e-05
A6G U55C C71A | self-cleavage kobs at 2500 uM GlcN6P | < | 1e-05
U46C G51U | self-cleavage kobs at 2500 uM GlcN6P | < | 1e-05
C8G C10U C11U G13A C34G | self-cleavage kobs at 2500 uM GlcN6P | < | 1e-05
G35C U65G | self-cleavage kobs at 2500 uM GlcN6P | < | 1e-05
C16U U31A G43U A52U | self-cleavage kobs at 2500 uM GlcN6P | < | 1e-05
A14G G21U U31G G38U U57C | self-cleavage kobs at 2500 uM GlcN6P | < | 1e-05
G7U G9U U31C U56C | self-cleavage kobs at 2500 uM GlcN6P | < | 1e-05
C16A C50A U69C | self-cleavage kobs at 2500 uM GlcN6P | = | 5.24e-05
G29U U45A U54C U55C G62C | self-cleavage kobs at 2500 uM GlcN6P | < | 1e-05
A12G G40A G60A U69G | self-cleavage kobs at 2500 uM GlcN6P | < | 1e-05
G32A C67U | self-cleavage kobs at 2500 uM GlcN6P | = | 0.000374
A39G A53U | self-cleavage kobs at 2500 uM GlcN6P | = | 0.0119
U31G G51C U57C | self-cleavage kobs at 2500 uM GlcN6P | < | 1e-05
C50A A53G C58G C68A | self-cleavage kobs at 2500 uM GlcN6P | = | 0.000108
G9U G41A A42U | self-cleavage kobs at 2500 uM GlcN6P | < | 1e-05
C10U G32U U69A | self-cleavage kobs at 2500 uM GlcN6P | = | 4.03e-05
U54G C68G | self-cleavage kobs at 2500 uM GlcN6P | = | 8.41e-05
C16G U46A | self-cleavage kobs at 2500 uM GlcN6P | = | 0.000146
G7A G9C A36C | self-cleavage kobs at 2500 uM GlcN6P | < | 1e-05
A14U C70U C71G | self-cleavage kobs at 2500 uM GlcN6P | = | 3.73e-05
A6U C34A G63C | self-cleavage kobs at 2500 uM GlcN6P | < | 1e-05
